# TEST_SUMMARY: Human HepG2 cell viability assay in 384 well format
# Format: toxicity, cell-based
# Set-up: dose 125 nL, time 70.5 hour; concentration not given beside the values
# PARTICULARS: HepG2 cells, read-out: Inhibition
Here the recorded cytotoxicity at 70.5 h is given for each entry.
READOUT_NAME: cytotoxicity at 70.5 h (%)

COMPOUND	READOUT_NAME	NUMERIC_READOUT
CN(Cc1nnc(-c2ccco2)o1)Cc1nc2c(s1)CCCC2	cytotoxicity at 70.5 h	-11.2
CC(Nc1nc2c(cnn2C)c(=O)[nH]1)c1ccccn1 (configuration not stated)	cytotoxicity at 70.5 h	13
O=C(NCCOc1ccc(Cl)cn1)Nc1ccccn1	cytotoxicity at 70.5 h	0.428
Cc1ccc(CCN2CCCC23Cc2ccccc2CNC3=O)cc1 (configuration not stated)	cytotoxicity at 70.5 h	-4.38
COCCN(Cc1cccs1)C(=O)c1ccc(=O)n(C)c1	cytotoxicity at 70.5 h	-10.2
COC(=O)CCn1ccc(=O)c2ccccc21	cytotoxicity at 70.5 h	-5.76
O=C(c1ccc(-n2cnnc2)cc1Cl)N1CCCC(O)(CO)CC1 (configuration not stated)	cytotoxicity at 70.5 h	15.6
COCCN1CCC(CNC(=O)C2(c3ccc(Br)cc3)CCCC2)C1 (configuration not stated)	cytotoxicity at 70.5 h	-0.291
COc1cc(S(=O)(=O)N2CCc3ccc(Cl)cc32)cc(C(=O)O)c1OC	cytotoxicity at 70.5 h	-8.43
CCCC1COCCN1Cc1ccc(S(=O)(=O)NC)cc1 (configuration not stated)	cytotoxicity at 70.5 h	7.3
Cc1cc(NC(=O)CCN2CCCC2Cn2cccn2)no1 (configuration not stated)	cytotoxicity at 70.5 h	-6.26
Cc1noc(C)c1CC(=O)N1CCC(Nc2cccnn2)CC1	cytotoxicity at 70.5 h	20.6
Cc1ccc(CN(Cc2ccccn2)C(=O)CCC2CCCN(C)C2)s1 (configuration not stated)	cytotoxicity at 70.5 h	32.1
Cn1cccc1C(O)CNC(=O)c1ccc2nsnc2c1 (configuration not stated)	cytotoxicity at 70.5 h	-14.5
Cc1cc(CNC(=O)CN2CCCC(Cn3cncn3)C2)ccc1F (configuration not stated)	cytotoxicity at 70.5 h	3.75
CC(Cn1cccn1)C(=O)N1CCC(Nc2cccnn2)CC1 (configuration not stated)	cytotoxicity at 70.5 h	-10
Cc1noc(CCCNC(=O)C2CSCN2C(=O)C(C)(C)C)n1 (configuration not stated)	cytotoxicity at 70.5 h	18.7
COc1ccccc1OCc1cc(C(=O)N2CCS(=O)(=O)CC2)n[nH]1	cytotoxicity at 70.5 h	-6.21
Cn1cc(N2CC3(COCCN(Cc4ccccn4)C3)OCC2=O)cn1 (configuration not stated)	cytotoxicity at 70.5 h	-11.1
CCCNC(=O)CN1CCC(NC(=O)c2cc(CC)ccc2O)CC1	cytotoxicity at 70.5 h	-6.46
CCN1CCc2[nH]cnc2C12CCN(c1ncc(C(=O)O)cc1Cl)CC2	cytotoxicity at 70.5 h	3.78
O=C(c1cnc2ccc(F)cc2c1NCc1ccco1)N1CCCCC1	cytotoxicity at 70.5 h	-9.21
CSC1(CNC(=O)CCc2ccc(Cl)s2)CCOCC1	cytotoxicity at 70.5 h	-5.64
COc1ccc(NC(=O)CSc2nncn2-n2cccc2)c(OC)c1	cytotoxicity at 70.5 h	-14.5
CN(C)c1nc(NCCc2ccccn2)ncc1F	cytotoxicity at 70.5 h	25.5
CCc1ccc(CNC(=O)Cn2ccc3sccc3c2=O)cc1	cytotoxicity at 70.5 h	2.36
O=C(Nc1cc(C(F)(F)F)ccc1Cl)c1ccc(N2CCCC2)nn1	cytotoxicity at 70.5 h	19.7
CN(C)C(=O)N1CCC(C(=O)N2CCOC(CC3CCCCC3)C2)CC1 (configuration not stated)	cytotoxicity at 70.5 h	-0.504
CC(C)(C)CNC[C@H]1Cn2ccnc2CO1	cytotoxicity at 70.5 h	-4.98
CC(C)[C@H]1CN(C2Cc3ccccc3C2)C[C@@H]1NS(=O)(=O)N(C)C	cytotoxicity at 70.5 h	0.396
Cc1noc([C@@]23CCO[C@@H]2CCN(C(=O)C2CCOCC2)C3)n1	cytotoxicity at 70.5 h	4.56
O=C(CN1CCC(c2ccnn2CCO)CC1)NCC1CCCCC1	cytotoxicity at 70.5 h	-3.43
CCc1cc(NCCNC(C)=O)nc(N2CCOCC2)n1	cytotoxicity at 70.5 h	-13.2
O=C(c1ccno1)N1CCC2(CC1)C(=O)Nc1ccccc12	cytotoxicity at 70.5 h	-6.37
O=C1CSC(c2cccs2)c2cnn(C3CCCC3)c2N1 (configuration not stated)	cytotoxicity at 70.5 h	-5.69
CCN(C(=O)CN(CC(N)=O)C(C)C)C1=CCCC1	cytotoxicity at 70.5 h	22.8
CN(Cc1ccco1)[C@@H]1CN(Cc2nccn2C)[C@@H]2CCCO[C@H]12	cytotoxicity at 70.5 h	-8.73

###

Here the recorded cytotoxicity at 70.5 h is given for each entry.
# TEST_SUMMARY: Human HepG2 cell viability assay in 384 well format
# Format: toxicity, cell-based
# Set-up: dose 125 nL, time 70.5 hour; concentration not given beside the values
# PARTICULARS: HepG2 cells, read-out: Inhibition

MOLECULE	cytotoxicity at 70.5 h (%)
Cc1nc(CN(C)C2CCCN(c3cccnn3)C2)nc2ccccc12 (stereo unspecified)	1.21
c1cnc2c(c1)cc([C@H]1CCCO1)n2CCN1CCOCC1	-27.8
CCc1ccc(CC)c(NCC(=O)N2CCCC(NC(C)=O)C2)c1 (stereo unspecified)	-6.55
O=C(c1cnccn1)N1CCCC(c2cccc(-n3ccnc3)n2)C1 (stereo unspecified)	11.1
COc1ccc(C(=O)C2CCCN(Cc3cccc(F)c3)C2)c(OC)c1 (stereo unspecified)	-0.757
Cc1cnn(C2CCN(Cc3ccccc3)C2)c1N (stereo unspecified)	16
CN(Cc1cncs1)C1CCN(C(=O)OC(C)(C)C)CC1	-8.3
CN1CCN(CCC(F)(F)C(F)F)CC12CCNC(=O)CC2 (stereo unspecified)	4.17
c1ccc(OCCNC2=NCCCN2)cc1	24.2
CC(c1ncc(C(C)(C)C)o1)N1CCN(Cc2ccncc2)CC1 (stereo unspecified)	-12.1
Cc1csc(N2CCN(C(=O)C3(C#N)CCCCC3)CC2)n1	-9.16

###

Here the recorded cytotoxicity at 70.5 h is given for each entry.
# TEST_SUMMARY: Human HepG2 cell viability assay in 384 well format
# Assay type: toxicity, cell-based
# Set-up: dose 125 nL, time 70.5 hour; concentration not given beside the values
# PARTICULARS: HepG2 cells, read-out: Inhibition
READOUT_NAME: cytotoxicity at 70.5 h

COMPOUND	RESULT
O=C(Cc1ccc(F)cc1)NCC1CCN(Cc2ccsc2)CC1	-3.3%
COCCNC(=O)Cn1cc(OCc2ccccc2F)c(=O)cc1CO	45.6%
Cc1cc(=O)[nH]c(=O)n1COCCOCc1ccccc1	25.1%
CNC(=O)CN1CCOCC2(CCCN(Cc3cccnc3)C2)C1 (stereo unspecified)	4.24%
CCN(CCn1cccn1)Cc1nc(-c2cc(F)ccc2F)oc1C	-11.2%
Cc1nc(CN(C)C2CCN(Cc3nc4ccccc4n3C)C2)no1 (stereo unspecified)	-2.1%
Nc1cc(N2CCOCC(Cc3ccc4[nH]ccc4c3)C2)ncn1 (stereo unspecified)	-0.988%
CN1CCN(Cc2c(Cl)ccc(O)c2Cl)CC1C(=O)O (stereo unspecified)	-16.7%
Cc1csc([C@@H]2C[C@@H]3CCN(C(=O)c4cnccn4)C[C@H]3O2)n1	-4.76%
CC(C)OCCCNC(=O)N(C)C(C)c1ccc(-n2cncn2)cc1 (stereo unspecified)	-6.64%
c1cc(C2CCN(Cc3nc(-c4ccsc4)no3)CC2)[nH]n1	-3.49%

###

# TEST_SUMMARY: Human HepG2 cell viability assay in 384 well format
# Format: toxicity, cell-based
# Set-up: dose 125 nL, time 70.5 hour; concentration not given beside the values
# PARTICULARS: HepG2 cells, read-out: Inhibition
READOUT_NAME: cytotoxicity at 70.5 h (%)

MOLECULE	NUMERIC_READOUT
COc1cccc(Cn2cc(C3=CCN(CC(=O)N(C)C)CC3)cn2)c1	-16.4
Cc1nc(C)c(CC(=O)N2C[C@@H]3CC[C@H](C2)N(CC2CC2)C3)s1	-3.8
COCCN(Cc1cccnc1)S(=O)(=O)c1cccc(F)c1F	5.02
COc1nc2c(cc1C(=O)NCCc1nc3c(s1)CCC3)CCC2	3.25
CCSCC(C)NCc1cn2ccccc2n1 (stereo not given)	-20.2
COc1cccc(-n2nnc(C(=O)N3CCNC(=O)C3)c2C)c1	28
Cc1cnn(CCNCc2ccc(OCc3cscn3)cc2)c1	-6.84
Cc1cccc(CN2CCc3ncnc(C4CC4)c3CC2)n1	5.72
CCOc1ccc(CC(=O)N2C[C@H](C3CC3)[C@@H](N)C2)cc1	37.4
CN(Cc1nnc(C2CC2)n1C)C1CCN(CCS(C)(=O)=O)C1 (stereo not given)	-6.94
c1ccc2c(c1)cnn2CCCNC1CCOC2(CCOCC2)C1 (stereo not given)	-13.6
CC(C)CNC(=O)C1=NOC2(CCN(Cc3cccc(C#N)c3)C2)C1 (stereo not given)	-1.8
CN1C(=O)CC(c2cnn(C)c2)C12CCN(C(=O)c1ccno1)CC2 (stereo not given)	-12
CC(NC(=O)N1CCc2sccc2C1)c1nncn1C (stereo not given)	-5.43
Cc1ccc(CN(C)c2cc(N3CCCC3CO)ncn2)s1 (stereo not given)	-4.83
O=C1O[C@@H]2CN(Cc3ccsc3)C[C@@H]2N1Cc1ccccn1	2.38
Cc1noc(-c2ccnc(Oc3cccc(CN4CCCC4)c3F)c2)n1	-14.1
CCN(CC)c1ccc(CNS(=O)(=O)C2CCOCC2)cc1F	-10.6
Cc1cnn(CCNCC(O)c2ccc(F)c(F)c2)c1 (stereo not given)	3.17
O=C(c1ccccn1)N1CC[C@H]2[C@H]1CCN2S(=O)(=O)C1CC1	6.25
Cc1ccc(N2CCCC(NCCS(C)(=O)=O)C2)nn1 (stereo not given)	-1.77
CC(C)(C)c1n[nH]c(C2CN(CCNC3CCCCC3)CCO2)n1 (stereo not given)	-1.09
CNC(=O)c1ccc(C(=O)N2CCCC(n3cc(C)cn3)C2)cn1 (stereo not given)	40.9
Cc1ccc2c(C)c(C(=O)NCCc3csc(N)n3)oc2c1	7.44
Cc1cc(-c2nn(C)c(Cl)c2CN2CC[C@H](CO)[C@@H](O)C2)no1	8.05
CC(C)CCC(C)NC(=O)CN1C=Nc2ccccc2S1(=O)=O (stereo not given)	-8.83
CC1=CCN(C(=O)Nc2ccccc2N2CCOC2=O)CC1	0.848
CC(C)c1ncncc1C(=O)N1CCN(Cc2ccccn2)CC1	-7.1
COc1ccc(F)c(F)c1CN1CCN(CC(C)C)C(=O)C1C (stereo not given)	25
O=C(O)c1ccccc1-n1cc(CN2CCC(c3cc[nH]n3)C2)cn1 (stereo not given)	-2.77
CCCn1cc(NC(=O)Nc2ccc(F)c(C(=O)NC)c2)cn1	-4.76
CCOCC1CN(Cc2nccs2)Cc2nn(CC3CC3)cc21 (stereo not given)	-9.99
Cc1nc2ccc(Cl)cn2c1CN1CCN(S(=O)(=O)N2CCCC2)CC1	-4.72
O=C(CN1CCN(C(=O)c2ccccc2)CC1)Nc1ncc(Br)cc1Br	-1.02
O=C(CO)N1CCCC2(CCN(c3ccsc3)C2=O)C1 (stereo not given)	-8.82
CC(C)Cc1nc(CN(C)c2cc(C(C)C)nc3ccnn23)no1	-10.6
COc1cccc(CNC(=O)c2nc3c(s2)CCN(C(C)=O)CC3)c1	-11
CC(C)C(=O)N1Cc2ccccc2CC2(CCCN2C)C1 (stereo not given)	-10.9
Nc1cc(-c2cccc3ccnn23)ccn1	-2.42
Cc1cccc(NC(=O)c2cccc(OCc3nnnn3C)c2)n1	18.7

Data provenance: ChEMBL document CHEMBL3507680
